These data points were gathered from PubChem BioAssay (NCI).

# Test system: SK-MEL-5 melanoma
# assay.info: NCI tumour cell line growth inhibition, 48 h
readout.label: TGI

{"compound": "Cc1[nH]c(=O)nc(N/N=C/c2ccc(O)cc2)c1C(=O)Nc1ccc(Cl)cc1", "result.value": "> 100 µM"}
{"compound": "CNC(=O)OCC1=C(COC(=O)NC)CN(c2ccccc2)C1", "result.value": "> 100 µM"}
{"compound": "CCOC(=O)Cc1nc2c(=O)[nH]cnc2n1C1OC(COC(C)=O)C(OC(C)=O)C1OC(C)=O (centres undefined)", "result.value": "> 100 µM"}
{"compound": "C=CC1(CCC(Br)C(C)(C)Cl)CO1 (centres undefined)", "result.value": "> 10 µM"}
{"compound": "COc1ccc(NC(=O)C2=C(SC)C(=O)N=C2N)cc1", "result.value": "> 100 µM"}
{"compound": "Cc1c(-c2coc(-c3ccc(Cl)cc3)n2)c(=O)n(-c2ccccc2)n1C", "result.value": "> 100 µM"}
{"compound": "COC1(OC)/C(=C(\\N)C=O)NC(C)(C)N1O", "result.value": "> 100 µM"}
{"compound": "CC(=O)OCC1OC(n2c3c(c(-c4ccco4)c(C#N)c2=S)CCCC3)C(OC(C)=O)C(OC(C)=O)C1OC(C)=O (centres undefined)", "result.value": "> 31.6 µM"}
{"compound": "Cc1cccc(N2C(=O)/C(=C/c3ccc(N(CCC#N)CCC#N)cc3C)N=C2c2cc([N+](=O)[O-])ccc2Cl)c1", "result.value": "> 100 µM"}

---

# Test system: 786-0 renal
# assay.info: NCI tumour cell line growth inhibition, 48 h
readout.label: TGI (µM)

{"molecule": "COC1(OC)/C(=C(\\N)C=O)NC(C)(C)N1O", "readout.label": "TGI", "readout.unit": "µM", "limit.sign": ">", "result.value": 100}
{"molecule": "CC(C)[Si]1(C(C)C)OCC2OC(n3cnc4c(N)ncnc43)C(N)C2O[Si](C(C)C)(C(C)C)O1 (stereo not given)", "readout.label": "TGI", "readout.unit": "µM", "limit.sign": "=", "result.value": 28.3}
{"molecule": "CN1c2ccccc2C(=O)Nc2cnc(Cl)nc21", "readout.label": "TGI", "readout.unit": "µM", "limit.sign": ">", "result.value": 100}
{"molecule": "C=C(C)[C@@H]1CCC[C@]2(C(=O)O)CC[C@]3(C)[C@@H](CC[C@@H]4[C@@]5(C)C/C(=C/c6ccncc6)C(=O)C(C)(C)[C@@H]5CC[C@]43C)[C@@H]12", "readout.label": "TGI", "readout.unit": "µM", "limit.sign": "=", "result.value": 6.23}
{"molecule": "O=C(CCCN1CCc2[nH]c3cc(F)ccc3c2C1)c1ccc(F)cc1", "readout.label": "TGI", "readout.unit": "µM", "limit.sign": "=", "result.value": 26.6}

---

# Tested on: A498 renal
# assay.info: NCI tumour cell line growth inhibition, 48 h; in the data active = GI50 below about 0.43 µM; inactive = the rest
Where a SMILES comes first, the peptide text is derived from it. The star is where a group is joined. Palmitoyl = CCCCCCCCCCCCCCCC(=O)*
Possible outcomes: active, inactive

{"compound": "CC(C)C[C@H](NC(=O)[C@@H](O)[C@H](N)Cc1ccccc1)C(=O)O", "target.or.test.system": "A498 renal", "class.name": "inactive"}
{"compound": "O=C(NO)C(O)C(O)C(O)C(O)CO (stereo not given)", "target.or.test.system": "A498 renal", "class.name": "inactive"}
{"compound": "CCCCCCCCCCCCCCCC(=O)NC(CCCCN)C(=O)NCC(=O)NC(Cc1ccccc1)C(=O)N1CCCC1C(=O)NC(CO)C(=O)NC(Cc1ccc(O)cc1)C(=O)NC(CCCCN)C(=O)NC(CC(C)C)C(=O)NC(CCCN=C(N)N)C(=O)N1CCCC1C(=O)NCC(N)=O (stereo not given) (Palmitoyl-KGFPSYKLRPG-NH2; configuration not given here)", "target.or.test.system": "A498 renal", "class.name": "inactive"}
{"compound": "CCCCCCCCCCCCCCCC(=O)N[C@H]1CCc2cc(OC)c(OC)c(OC)c2-c2ccc(SC)c(=O)cc21", "target.or.test.system": "A498 renal", "class.name": "inactive"}
{"compound": "CN(C)c1ccc(Sc2ccc3nc(N)nc(N)c3c2)cc1", "target.or.test.system": "A498 renal", "class.name": "inactive"}
{"compound": "C=C(CC1(CC(=C)c2ccc(C(=O)O)cc2)C(=O)N(C)C(=O)N(C)C1=O)c1ccc(C(=O)O)cc1", "target.or.test.system": "A498 renal", "class.name": "inactive"}
{"compound": "COc1ccc(N(Cc2cc(OC)c(OC)c(OC)c2)C2OC(=O)c3ccccc32)cc1 (stereo not given)", "target.or.test.system": "A498 renal", "class.name": "active"}
{"compound": "O=c1c2cc(F)ccc2sc2c(NCCCN3CCCC3)nc3ccccc3c12", "target.or.test.system": "A498 renal", "class.name": "inactive"}
{"compound": "O=C(Nc1ccccc1)Nc1ccccc1CNc1nc(Nc2ccc(OCCN3CCCC3)cc2)ncc1Cl", "target.or.test.system": "A498 renal", "class.name": "inactive"}
{"compound": "C[C@]12CC[C@@H]3c4ccc(O)cc4CC[C@H]3[C@@H]1CC[C@@H]2NS(=O)(=O)c1ccc(-c2ccccc2)cc1", "target.or.test.system": "A498 renal", "class.name": "inactive"}

---

# System: UACC-62 melanoma
# assay.info: NCI tumour cell line growth inhibition, 48 h

{"compound": "CSc1nc2c(ncn2C2OCC(O)C(O)C2O)c(=O)[nH]1 (configuration not stated)", "TGI": "> 100 µM"}
{"compound": "BrCC[P+](c1ccccc1)(c1ccccc1)c1ccccc1", "TGI": "21.9 µM"}
{"compound": "CC1SC2(CCCCC2)N(NC(=O)c2[nH]c3ccc(F)cc3c2-c2ccccc2)C1=O (configuration not stated)", "TGI": "> 100 µM"}
{"compound": "CCCCC(=C=C1CCCCC1O)C1CCCN1C(=O)OC(C)(C)C (configuration not stated)", "TGI": "23.4 µM"}
{"compound": "COC(=O)C1CCC(=NC2c3ccccc3-c3ccccc32)N1 (configuration not stated)", "TGI": "> 100 µM"}
{"compound": "COC(=O)C1(Cc2ccccc2)Cc2ccccc2C1=O (configuration not stated)", "TGI": "> 100 µM"}
{"compound": "COc1cc(CC(=O)c2ccc3c(c2)OCO3)cc(OC)c1OC", "TGI": "> 100 µM"}
{"compound": "Cc1ccc(C2=Nn3c(nc4sc(-c5ccccc5)cc4c3=O)SC2)cc1", "TGI": "> 100 µM"}
{"compound": "CCOP(=O)(OCC)C(F)(F)CC1CCCCC1", "TGI": "> 10 µM"}
{"compound": "COc1cc([C@@H]2c3cc4c(cc3[C@@H](Nc3ccc(Cl)cc3C(=O)c3ccccc3Cl)[C@H]3COC(=O)[C@H]23)OCO4)cc(OC)c1OC", "TGI": "> 72.4 µM"}
{"compound": "C#Cc1ccc(-n2c(/C=C/c3cc(OC)c(OC)c(OC)c3)nc3ncccc3c2=O)cc1", "TGI": "> 100 µM"}
{"compound": "C[C@H](NC(=O)CCC(F)(F)F)C(=O)N[C@@H]1C(=O)N(CCO)c2ncccc2-c2ccccc21", "TGI": "> 100 µM"}
{"compound": "C/C(=C/CC[C@](C)(OC1OC(CO)C(O)C(O)C1O)[C@H]1CC[C@]2(C)[C@@H]1CC[C@@H]1[C@@]3(C)CC[C@H](O)C(C)(C)[C@@H]3C[C@H](O)[C@]12C)CO (some centres not stated)", "TGI": "58.3 µM"}
{"compound": "COc1cc(/C=C\\c2cccnc2Nc2ccccc2)cc(OC)c1OC", "TGI": "25.4 µM"}
{"compound": "COc1ccc(N(Cc2cc(OC)c(OC)c(OC)c2)C2OC(=O)c3ccccc32)cc1 (configuration not stated)", "TGI": "> 100 µM"}
{"compound": "Cc1ccc(OCCCCCCNCCO)c(C)c1", "TGI": "25.7 µM"}
{"compound": "COCCCN1C(=O)C2c3[nH]c4ccccc4c3C3CCC(C(C)(C)C)CC3C2C1=O (configuration not stated)", "TGI": "> 10 µM"}
{"compound": "O=C(Nc1ccccc1)N1N=C(c2ccccc2)C1c1ccccc1 (configuration not stated)", "TGI": "45.7 µM"}
{"compound": "CSc1nc(Br)nc2c1ncn2C1CC(Oc2ccc(C)cc2)C(COc2ccc(C)cc2)O1 (configuration not stated)", "TGI": "> 100 µM"}
{"compound": "O=C(NO)C(O)C(O)C(O)C(O)CO (configuration not stated)", "TGI": "> 100 µM"}
{"compound": "O=C1/C(=C/c2ccccc2)CN(C(=O)OCC(Cl)(Cl)Cl)C/C1=C\\c1ccccc1", "TGI": "9.03 µM"}
{"compound": "CCC1NCC(=O)c2c1[nH]c1ccccc21 (configuration not stated)", "TGI": "> 100 µM"}
